# credit: patent US20230303569A1

target: human Nav1.6 (Homo sapiens); construct: host or cells: HEK293; assay: Two pulse assay protocol, Nav1.6; format: cell-based; conditions: 5 uM; peak current, pulse 2 (state-dependent); read-out: percent inhibition hNav1.6, Pulse 2 (5 uM)
Sequence (Q9UQD0 whole entry): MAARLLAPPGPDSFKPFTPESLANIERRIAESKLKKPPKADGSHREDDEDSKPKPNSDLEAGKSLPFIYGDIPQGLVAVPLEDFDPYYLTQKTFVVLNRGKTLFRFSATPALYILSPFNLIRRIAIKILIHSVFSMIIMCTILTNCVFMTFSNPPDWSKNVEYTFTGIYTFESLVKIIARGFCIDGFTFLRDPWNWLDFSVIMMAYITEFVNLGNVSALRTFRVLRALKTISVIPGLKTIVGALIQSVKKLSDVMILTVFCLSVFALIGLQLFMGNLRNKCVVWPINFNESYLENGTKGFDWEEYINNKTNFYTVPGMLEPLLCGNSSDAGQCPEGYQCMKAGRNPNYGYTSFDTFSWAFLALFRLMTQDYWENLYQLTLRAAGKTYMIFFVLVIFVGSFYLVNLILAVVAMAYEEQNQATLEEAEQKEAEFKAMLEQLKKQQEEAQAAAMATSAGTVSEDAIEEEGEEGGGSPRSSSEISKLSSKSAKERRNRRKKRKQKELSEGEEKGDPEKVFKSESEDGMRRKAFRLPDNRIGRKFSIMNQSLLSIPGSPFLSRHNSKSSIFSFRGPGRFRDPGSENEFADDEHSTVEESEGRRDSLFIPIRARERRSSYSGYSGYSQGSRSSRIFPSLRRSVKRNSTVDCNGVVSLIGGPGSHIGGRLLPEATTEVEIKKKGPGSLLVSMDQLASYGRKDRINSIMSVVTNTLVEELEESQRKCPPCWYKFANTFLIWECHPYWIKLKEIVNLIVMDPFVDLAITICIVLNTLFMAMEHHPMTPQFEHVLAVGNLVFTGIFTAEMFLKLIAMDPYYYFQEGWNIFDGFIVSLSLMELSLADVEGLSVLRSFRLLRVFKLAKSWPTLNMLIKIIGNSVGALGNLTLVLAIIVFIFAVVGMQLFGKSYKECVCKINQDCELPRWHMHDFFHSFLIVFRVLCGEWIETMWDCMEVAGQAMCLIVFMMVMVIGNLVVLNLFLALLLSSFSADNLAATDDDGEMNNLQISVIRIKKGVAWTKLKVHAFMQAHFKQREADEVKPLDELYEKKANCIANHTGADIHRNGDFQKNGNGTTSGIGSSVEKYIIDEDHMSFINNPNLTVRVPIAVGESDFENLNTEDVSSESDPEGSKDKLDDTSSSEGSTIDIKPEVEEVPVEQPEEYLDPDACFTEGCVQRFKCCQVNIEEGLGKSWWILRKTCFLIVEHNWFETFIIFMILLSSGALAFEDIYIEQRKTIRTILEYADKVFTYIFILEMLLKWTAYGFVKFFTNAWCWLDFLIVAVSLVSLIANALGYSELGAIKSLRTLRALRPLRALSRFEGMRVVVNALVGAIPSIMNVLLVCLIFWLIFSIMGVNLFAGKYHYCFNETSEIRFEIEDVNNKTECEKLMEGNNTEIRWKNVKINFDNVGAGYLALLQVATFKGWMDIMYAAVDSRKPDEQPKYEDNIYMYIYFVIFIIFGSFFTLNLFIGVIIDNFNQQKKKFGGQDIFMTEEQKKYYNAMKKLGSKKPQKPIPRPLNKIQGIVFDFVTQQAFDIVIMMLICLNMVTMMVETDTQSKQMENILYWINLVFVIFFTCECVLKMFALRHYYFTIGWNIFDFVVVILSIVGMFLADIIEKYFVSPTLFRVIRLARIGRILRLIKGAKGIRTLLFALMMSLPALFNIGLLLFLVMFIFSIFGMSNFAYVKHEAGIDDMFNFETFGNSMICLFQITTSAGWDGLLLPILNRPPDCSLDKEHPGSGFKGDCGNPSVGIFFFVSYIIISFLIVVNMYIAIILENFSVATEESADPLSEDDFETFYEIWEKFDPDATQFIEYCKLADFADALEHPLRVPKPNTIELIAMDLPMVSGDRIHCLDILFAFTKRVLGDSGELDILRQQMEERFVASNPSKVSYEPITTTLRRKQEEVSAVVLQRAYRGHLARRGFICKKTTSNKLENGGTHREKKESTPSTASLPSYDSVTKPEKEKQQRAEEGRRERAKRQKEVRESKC
measurement-type: inhibition at 5 µM

{"cpd-smiles": "Cc1cc2ncc(-c3ccc(OC(C)C)cc3)n2cc1-c1ccc(OC(C)C)cc1", "measurement-type": "inhibition at 5 µM", "recorded-measurement": "50 to 90%"}
{"cpd-smiles": "CC(C)Oc1ccc(-c2ccc3ncc(-c4ccc(OC(C)(C)C)cc4)n3c2)cn1", "measurement-type": "inhibition at 5 µM", "recorded-measurement": "50 to 90%"}
{"cpd-smiles": "Cc1cc(-c2cnc3ccc(-c4ccc(OC(C)C)cc4)cn23)cnc1OC(C)C", "measurement-type": "inhibition at 5 µM", "recorded-measurement": "> 90%"}
{"cpd-smiles": "CC(C)Oc1ccc(-c2ccc3ncc(-c4ccc(OC(C)C)cc4)n3c2)cc1", "measurement-type": "inhibition at 5 µM", "recorded-measurement": "> 90%"}
{"cpd-smiles": "CC(C)Oc1ccc(-c2cnc3ccc(-c4ccc(OC(C)(C)C)cc4)cn23)cc1", "measurement-type": "inhibition at 5 µM", "recorded-measurement": "> 90%"}
{"cpd-smiles": "CC(C)Oc1ccc(-c2ccc3ncc(-c4ccc(Oc5ccccc5)nc4)n3c2)cc1", "measurement-type": "inhibition at 5 µM", "recorded-measurement": "> 90%"}
{"cpd-smiles": "Cc1cc2ncc(-c3ccc(OC(C)(C)C)cc3)n2cc1-c1ccc(OC(C)C)cc1", "measurement-type": "inhibition at 5 µM", "recorded-measurement": "> 90%"}
{"cpd-smiles": "CC(C)Oc1ccc(-c2ccc3ncc(-c4cncc(OC(C)C)c4)n3c2)cc1", "measurement-type": "inhibition at 5 µM", "recorded-measurement": "50 to 90%"}
{"cpd-smiles": "CC(C)Oc1ccc(-c2ccc3ncc(-c4ccnc(OC(C)C)c4)n3c2)cc1", "measurement-type": "inhibition at 5 µM", "recorded-measurement": "> 90%"}
{"cpd-smiles": "FC(F)(F)Oc1ccc(-c2cnc3ccc(C(F)(F)F)cn23)cc1", "measurement-type": "inhibition at 5 µM", "recorded-measurement": "< 50%"}
{"cpd-smiles": "Cc1cc2ncc(-c3ccc(OC(C)(C)C)nc3)n2cc1-c1ccc(OC(C)C)c(F)c1", "measurement-type": "inhibition at 5 µM", "recorded-measurement": "50 to 90%"}

###

Reported inhibition at 5 µM values follow for various compounds
biological target: human Nav1.8 (Homo sapiens, UniProt Q9Y5Y9); construct: host or cells: HEK293; assay: Two pulse assay protocol, Nav1.8; type: cell-based; conditions: peak current, pulse 2 (state-dependent), read-out: percent inhibition hNav1.8, Pulse 2 (5 uM)
Sequence (Q9Y5Y9 whole entry): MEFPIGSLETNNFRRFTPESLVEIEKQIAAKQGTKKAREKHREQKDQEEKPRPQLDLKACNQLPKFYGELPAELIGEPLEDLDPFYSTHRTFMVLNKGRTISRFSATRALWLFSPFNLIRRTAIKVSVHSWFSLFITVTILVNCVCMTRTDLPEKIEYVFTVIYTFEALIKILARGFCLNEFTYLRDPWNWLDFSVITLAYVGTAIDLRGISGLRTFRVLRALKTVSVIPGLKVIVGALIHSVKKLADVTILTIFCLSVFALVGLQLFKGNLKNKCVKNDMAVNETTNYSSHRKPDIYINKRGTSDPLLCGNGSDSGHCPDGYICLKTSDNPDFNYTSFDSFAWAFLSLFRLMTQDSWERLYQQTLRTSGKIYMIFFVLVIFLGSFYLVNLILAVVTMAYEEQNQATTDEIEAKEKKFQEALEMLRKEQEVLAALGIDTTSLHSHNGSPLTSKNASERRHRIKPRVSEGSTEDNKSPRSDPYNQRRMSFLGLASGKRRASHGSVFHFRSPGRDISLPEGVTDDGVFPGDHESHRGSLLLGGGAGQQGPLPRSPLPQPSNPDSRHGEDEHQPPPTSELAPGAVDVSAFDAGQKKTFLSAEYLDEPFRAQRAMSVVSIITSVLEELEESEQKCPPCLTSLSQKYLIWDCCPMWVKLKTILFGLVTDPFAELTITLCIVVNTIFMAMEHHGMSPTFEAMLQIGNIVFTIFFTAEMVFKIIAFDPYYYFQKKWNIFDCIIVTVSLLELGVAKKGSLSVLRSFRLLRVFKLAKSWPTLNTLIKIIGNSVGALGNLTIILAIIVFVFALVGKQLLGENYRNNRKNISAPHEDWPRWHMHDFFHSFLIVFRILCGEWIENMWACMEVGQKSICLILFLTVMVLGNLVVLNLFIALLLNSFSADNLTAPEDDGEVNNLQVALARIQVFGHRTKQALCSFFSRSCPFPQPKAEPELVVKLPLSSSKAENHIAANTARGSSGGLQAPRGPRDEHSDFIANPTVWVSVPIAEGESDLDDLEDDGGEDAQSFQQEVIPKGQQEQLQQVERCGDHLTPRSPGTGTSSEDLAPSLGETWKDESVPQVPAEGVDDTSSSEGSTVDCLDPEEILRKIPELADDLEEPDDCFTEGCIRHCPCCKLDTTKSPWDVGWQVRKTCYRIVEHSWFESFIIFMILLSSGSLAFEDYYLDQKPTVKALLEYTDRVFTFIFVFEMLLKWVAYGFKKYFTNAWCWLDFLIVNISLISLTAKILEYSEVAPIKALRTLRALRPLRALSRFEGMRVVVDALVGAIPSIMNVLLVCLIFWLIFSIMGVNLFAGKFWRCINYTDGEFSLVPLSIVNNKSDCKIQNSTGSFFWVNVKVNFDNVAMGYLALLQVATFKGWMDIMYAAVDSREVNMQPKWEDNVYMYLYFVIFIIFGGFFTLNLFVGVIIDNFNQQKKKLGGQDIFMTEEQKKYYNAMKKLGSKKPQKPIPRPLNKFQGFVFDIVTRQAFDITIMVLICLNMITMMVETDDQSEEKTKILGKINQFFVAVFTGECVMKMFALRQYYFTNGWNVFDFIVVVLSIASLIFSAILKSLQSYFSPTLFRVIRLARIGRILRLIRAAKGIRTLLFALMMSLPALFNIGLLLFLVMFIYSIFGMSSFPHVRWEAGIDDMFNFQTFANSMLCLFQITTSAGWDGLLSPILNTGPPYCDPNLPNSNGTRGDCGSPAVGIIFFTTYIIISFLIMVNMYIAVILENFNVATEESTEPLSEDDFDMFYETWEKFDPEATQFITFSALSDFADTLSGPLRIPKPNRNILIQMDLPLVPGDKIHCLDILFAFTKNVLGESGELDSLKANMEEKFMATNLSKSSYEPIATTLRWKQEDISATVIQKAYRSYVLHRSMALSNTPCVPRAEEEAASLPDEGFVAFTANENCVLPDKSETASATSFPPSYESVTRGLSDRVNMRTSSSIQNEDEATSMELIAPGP
measurement-type: inhibition at 5 µM

{"cpd-smiles": "FC(F)(F)Oc1ccc(-c2cnc3ccc(C(F)(F)F)cn23)cc1", "measurement-type": "inhibition at 5 µM", "recorded-measurement": "< 50%"}
{"cpd-smiles": "CC(C)Oc1ccc(-c2cnc3ccc(C(F)(F)F)cn23)cc1", "measurement-type": "inhibition at 5 µM", "recorded-measurement": "< 50%"}
{"cpd-smiles": "Cc1cc2ncc(-c3ccc(OC(C)(C)C)cc3)n2cc1-c1ccc(OC(C)C)cc1", "measurement-type": "inhibition at 5 µM", "recorded-measurement": "< 50%"}
